Source: patent US4533665A

Listed compounds paired with reported IC50
assay.target: S2-receptor (Rattus norvegicus)
Construct: Caudal arteries from fasted male rats; from tissue; host or cells: rat caudal artery, helical strips
Sequence (P14842 whole entry): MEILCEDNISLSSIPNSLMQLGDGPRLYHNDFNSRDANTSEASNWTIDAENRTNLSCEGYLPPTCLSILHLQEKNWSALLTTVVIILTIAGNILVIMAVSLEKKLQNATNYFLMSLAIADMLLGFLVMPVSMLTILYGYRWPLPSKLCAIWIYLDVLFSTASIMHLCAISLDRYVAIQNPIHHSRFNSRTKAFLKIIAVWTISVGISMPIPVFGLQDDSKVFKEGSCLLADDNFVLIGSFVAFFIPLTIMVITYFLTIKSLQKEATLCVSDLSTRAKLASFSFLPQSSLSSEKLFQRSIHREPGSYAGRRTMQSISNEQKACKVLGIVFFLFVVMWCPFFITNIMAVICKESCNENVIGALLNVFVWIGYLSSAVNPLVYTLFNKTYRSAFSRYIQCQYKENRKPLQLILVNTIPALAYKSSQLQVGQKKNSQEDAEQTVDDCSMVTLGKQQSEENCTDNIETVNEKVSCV
assay.info: antagonistic activity on the effect of serotonin on the caudal artery of the rat (caudal artery test)
study.conditions: rat caudal artery strips; serotonin 40 ng/ml; 5 minutes after adding the drug; read-out: ED50 (minimal concentration which reduces the amplitude of the serotonin-induced contraction to at least 50% of its normal value) (converted)

These recorded examples may help you get a feel for the data.
>>> result("Cc1cccc(C(=C2CCN(CCc3c(C)nc4scc(C)n4c3=O)CC2)c2ccc(F)cc2)c1 [Compound 122]")
"0.656 pM"
>>> result("Cc1nc2n(c(=O)c1CCN1CCC(=C(c3ccc(F)cc3)c3cccc(F)c3)CC1)CCCC2 [Compound 30]")
"1.18 pM"
>>> result("Cc1ccc(C(=C2CCN(CCc3c(C)nc4n(c3=O)CCCS4)CC2)c2ccc(C)cc2)cc1 [Compound 108]")
"2.68 pM"
>>> result("Cc1nc2scc(C)n2c(=O)c1CCN1CCC(=C(c2ccc(O)cc2)c2ccc(F)cc2)CC1 [Compound 23]")
"1.14 pM"
>>> result("Cc1nc2ccccn2c(=O)c1CCN1CCC(=C(c2ccccc2)c2ccc(O)cc2)CC1 [Compound 78]")
"2.88 pM"
>>> result("Cc1nc2n(c(=O)c1CCN1CCC(=C(c3ccc(F)cc3)c3ccc(F)cc3)CC1)CCS2 [Compound 113]")
"1.17 pM"

Given Cc1nc2n(c(=O)c1CCN1CCC(=C(c3ccccc3)c3cccc(C(F)(F)F)c3)CC1)CCCC2 [Compound 86] , state its recorded IC50.
0.63 pM

Given Cc1nc2scc(C)n2c(=O)c1CCN1CCC(=C(c2ccccc2)c2cccc(C(F)(F)F)c2)CC1 [Compound 85] , state its recorded IC50.
< 4.77 pM

Given Cc1nc2sccn2c(=O)c1CCN1CCC(=C(c2ccccc2)c2ccccc2)CC1 [Compound 4] , state its recorded IC50.
0.362 pM
